# System: SUDHL10
# test protocol: Induction of cytotoxicity (CellTiter-Glo, 5 h), SUDHL10
# study conditions: read-out: Cytotox SUDHL10 [M] (median); SUDHL10 cells, cytotoxicity induction, CellTiter-Glo, 5 h incubation, median
endpoint: IC50 (M)
Numeric only. Scale: M

Examples with their reported IC50 follow.
[[record]]
compound = "Cc1nn(CCN2CCOCC2)c2c1-c1cccc3c(CCCOc4cccc5ccccc45)c(C(=O)O)n(c13)CCCCOC2 (single isomer, unassigned; enantiomer 1) [Example 096]"
endpoint = "IC50"
units_symbol = "M"
readout_number = "3.7e-06"

[[record]]
compound = "CCN(CC)S(=O)(=O)N1CCN(c2ccc(OCc3nn(C)c4c3-c3cccc5c(CCCOc6cccc7ccccc67)c(C(=O)O)n(c35)CCCCOC4)cc2)CC1 (single isomer, unassigned; enantiomer 2)"
endpoint = "IC50"
units_symbol = "M"
readout_number = "4.77e-06"

[[record]]
compound = "COc1ccccc1-c1ncc(OCc2nn(C)c3c2-c2cccc4c(CCCOc5cccc6ccccc56)c(C(=O)O)n(c24)CCCN(C)C3)cn1 (single isomer, unassigned)"
endpoint = "IC50"
units_symbol = "M"
readout_number = "5.77e-06"


Prompt line: Request body: readout IC50, system SUDHL10, query CCc1nn(C)c2c1-c1c(C)ccc3c(C(C)CCOc4cccc5cc(F)ccc45)c(C(=O)O)n(c13)CCCCOC2 (single isomer, unassigned) [Example 263] . Return the value.
Response line: 2.79e-05

Prompt line: Could you share what IC50 was measured for CN1CCCn2c(C(=O)O)c(CCCOc3cccc4ccccc34)c3cccc(c32)-c2c(CNCC(F)(F)F)nn(C)c2C1 (single isomer, unassigned; enantiomer 2) [Example 131] , tested on SUDHL10?
Response line: 2.88e-05

----------
# Test system: OPM2
# test protocol: Anti-proliferative effect (CellTiter-Glo, 72 h), OPM2
# Assay type: cell-based
# study conditions: Homo sapiens, OPM-2, 72 h, OPM2 cells, median, read-out: IC50 antiproliferation assay OPM2 [M] (median)
// reported IC50 per item

Would you please look over these solved cases?
[[record]]
compound = "Cn1nc(COc2ccccc2)c2c1COCC=CCn1c(C(=O)O)c(CCCOc3cccc4ccccc34)c3cccc-2c31 (single isomer, unassigned) [Example 1-77]"
result = "> 3.3e-05 M"

[[record]]
compound = "CN1CCN(c2ccc(OCc3nn(C)c4c3-c3cccc5c(CCCOc6cccc7ccccc67)c(C(=O)O)n(c35)CCCCOC4)cc2)CC1 (racemic) [Example 1-7]"
result = "> 3.3e-05 M"

[[record]]
compound = "Cn1nc(COc2ccc(N3CCN(CC(=O)O)CC3)cc2)c2c1COCCCCn1c(C(=O)O)c(CCCOc3cccc4ccccc34)c3cccc-2c31 (racemic) [Example 1-120]"
result = "> 3.3e-05 M"

[[record]]
compound = "CC(=O)N1CCN(c2ccc(OCc3nn(C)c4c3-c3cccc5c(CCCOc6cccc7ccccc67)c(C(=O)O)n(c35)CCCCOC4)cc2)CC1 (racemic) [Example 1-24]"
result = "2.97e-05 M"

[[record]]
compound = "Cc1ccc2c(CCCOc3cccc4ccccc34)c(C(=O)O)n3c2c1-c1c(nn(C)c1C)COC/C=C\\C3 (racemic) [Example 070]"
result = "1.34e-05 M"

[[record]]
compound = "Cn1nc(COc2ccccc2)c2c1COCC=CCn1c(C(=O)O)c(CCCOc3cccc4ccccc34)c3cccc-2c31 (racemic) [Example 1-76]"
result = "> 3.3e-05 M"


Prompt line: Fill in: IC50 of COc1cc2cc(c1)-c1cccc3c(CCCOc4cccc5c4CCCC5)c(C(=O)O)n(c13)CCOCCO2 (racemic) [Example 1-118] is ___
Response line: > 3.3e-05 M

Prompt line: // returns reported IC50 for input COc1cc2cc(c1)-c1cccc3c(CCCOc4cccc5ccccc45)c(C(=O)O)n(c13)CCOCCO2 (racemic) [Example 1-119]
Response line: > 3.3e-05 M

----------
Collected IC50 values appear next to each entry.
# System: SUDHL5
# test protocol: Induction of cytotoxicity (CellTiter-Glo, 5 h), SUDHL5
# study conditions: read-out: Cytotox SUDHL5 [M] (median); SUDHL5 cells, cytotoxicity induction, CellTiter-Glo, 5 h incubation, median
Write the number in M without appending the unit.

Worked examples follow.
[[record]]
compound = "Cn1nc(CN2CC(F)(F)C2)c2c1COCCCCn1c(C(=O)O)c(CCCOc3cccc4ccccc34)c3cccc-2c31 (single isomer, unassigned; enantiomer 1) [Example 181]"
units_symbol = "M"
readout_number = "6.68e-06"

[[record]]
compound = "Cc1c2c(nn1C1CC1)COCCCCn1c(C(=O)O)c(CCCOc3cccc4ccccc34)c3cccc-2c31 (single isomer, unassigned; enantiomer 1) [Example 093]"
units_symbol = "M"
readout_number = "2.1e-06"

[[record]]
compound = "Cn1nc(COc2ccc(N3CCN(S(C)(=O)=O)CC3)cc2)c2c1COCCCCn1c(C(=O)O)c(CCCOc3cccc4ccccc34)c3cccc-2c31 (single isomer, unassigned; enantiomer 2) [Example 1-10]"
units_symbol = "M"
readout_number = "4.33e-07"

[[record]]
compound = "Cn1nc(COc2ccc(N3CCN(S(=O)(=O)C4CC4)CC3)cc2)c2c1COCCCCn1c(C(=O)O)c(CCCOc3cccc4ccccc34)c3cccc-2c31 (single isomer, unassigned; enantiomer 1) [Example 1-12]"
units_symbol = "M"
readout_number = "1.73e-05"

[[record]]
compound = "Cc1ccc2c(CCCOc3cccc4ccccc34)c(C(=O)O)n3c2c1-c1c(C)nn(C)c1COCCC3 (single isomer, unassigned; enantiomer 2) [Example 026]"
units_symbol = "M"
readout_number = "2.41e-05"


Prompt line: For the compound CCc1nn(C)c2c1-c1c(C)ccc3c(C(C)CCOc4cccc5cc(F)ccc45)c(C(=O)O)n(c13)CCCCOC2 (single isomer, unassigned) [Example 262] , what IC50 is on record?
Response line: 1.67e-05

Prompt line: State the recorded IC50 for this entry: CCn1nc2c(c1C1CC1)-c1cccc3c(CCCOc4cccc5ccccc45)c(C(=O)O)n(c13)CCCCOC2 (single isomer, unassigned; enantiomer 1) [Example 082]
Response line: 8.19e-06

Prompt line: Would you mind telling me what IC50 value was observed for COc1ccccc1-c1ncc(OCc2nn(C)c3c2-c2cccc4c(CCCOc5cccc6ccccc56)c(C(=O)O)n(c24)CCCN(C)C3)cn1 (single isomer, unassigned) [Example 1-91] ?
Response line: 5.99e-06

Prompt line: Entry CN1CCCn2c(C(=O)O)c(CCCOc3cccc4ccccc34)c3cccc(c32)-c2c(COc3ccc(C4CCOCC4)cc3)nn(C)c2C1 (single isomer, unassigned) has what IC50?
Response line: 1.24e-05

Prompt line: For CCc1c2c(nn1C)COCCCCn1c(C(=O)O)c(CCCOc3cccc4ccccc34)c3ccc(C)c-2c31 (single isomer, unassigned; enantiomer 1) [Example 154] , what is its reported IC50?
Response line: 1.08e-06

----------
# assayed target: MCL-1 (Homo sapiens)
# Sequence (Q07820 whole entry): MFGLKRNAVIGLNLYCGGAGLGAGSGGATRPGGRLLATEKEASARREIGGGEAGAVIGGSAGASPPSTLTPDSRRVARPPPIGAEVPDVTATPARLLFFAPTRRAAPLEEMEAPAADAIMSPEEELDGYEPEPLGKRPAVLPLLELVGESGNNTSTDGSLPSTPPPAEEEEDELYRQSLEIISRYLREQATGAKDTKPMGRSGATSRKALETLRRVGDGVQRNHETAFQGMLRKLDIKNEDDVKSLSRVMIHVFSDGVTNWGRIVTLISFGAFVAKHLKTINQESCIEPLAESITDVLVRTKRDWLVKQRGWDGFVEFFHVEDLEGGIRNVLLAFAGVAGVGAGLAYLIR
# test protocol: Protein-protein interaction assay MCL-1/Noxa BH3 peptide (MCL-1 assay), TR-FRET
# Format: binding
# study conditions: MBP-MCL-1 / Noxa BH3-derived peptide, median
Listing: log10(IC50) of selected compounds
On a log10 scale: recorded IC50, unit µM.

# annotated cases, reported log10(IC50) shown
[[record]]
compound = "CN1CCCn2c(C(=O)O)c(CCCOc3cccc4ccccc34)c3cccc(c32)-c2c(CCN3CCOCC3)nn(C)c2C1 (racemic) [Example 124]"
endpoint = "log10(IC50)"
readout_number = -1.73

[[record]]
compound = "CCCc1nn(C)c2c1-c1c(C)ccc3c(CCCOc4cccc5ccccc45)c(C(=O)O)n(c13)CCCN(C)C2 (single isomer, unassigned; enantiomer 2) [Example 197]"
endpoint = "log10(IC50)"
readout_number = -0.98

[[record]]
compound = "Cc1nn(C)c2c1-c1cccc3c(CCCOc4cccc5cc(F)ccc45)c(C(=O)O)n(c13)CCCOC2 (racemic) [Example 046]"
endpoint = "log10(IC50)"
readout_number = -1.97

[[record]]
compound = "Cc1nn(C)c2c1-c1cccc3c(CCCOc4ccc(F)c5ccccc45)c(C(=O)O)n(c13)CCCCOC2 (single isomer, unassigned; enantiomer 2) [Example 023]"
endpoint = "log10(IC50)"
readout_number = -2.77


Prompt line: Query (compound): Cn1nc(CN2CC3(COC3)C2)c2c1COCCCCn1c(C(=O)O)c(CCCOc3cccc4ccccc34)c3cccc-2c31 (single isomer, unassigned; enantiomer 1) [Example 344] ; field requested: log10(IC50)
Response line: -0.36

Prompt line: # log10(IC50) lookup, item COCCn1nc(C2CC2)c2c1COCCCCn1c(C(=O)O)c(CCCOc3cccc4ccccc34)c3cccc-2c31 (single isomer, unassigned; enantiomer 2) [Example 104]
Response line: -0.97

----------
# System: SUDHL10
# test protocol: Induction of caspase-3/7 activity (Caspase-Glo 3/7), SUDHL10
# Type: cell-based
# study conditions: Homo sapiens, SU-DHL10, 3 h, caspase-3/7 induction, SUDHL10 cells, 3 h treatment; median
The following molecules are listed with their measured EC50 values.

Solved cases below.
[[record]]
molecule = "CCn1nc(C2CC2)c2c1COCCCCn1c(C(=O)O)c(CCCOc3cccc4ccccc34)c3cccc-2c31 (racemic) [Example 088]"
result = "> 33 µM"

[[record]]
molecule = "Cc1c2c(nn1C)COCCCCn1c(C(=O)O)c(CCc3ccc(C(F)(F)F)cc3)c3cccc-2c31 (racemic) [Example 355]"
result = "> 33 µM"


Now for a further molecule.
Prompt line: Need EC50 of Cn1nc(COC2CC2)c2c1COCCCCn1c(C(=O)O)c(CCCOc3cccc4ccccc34)c3cccc-2c31 (racemic) [Example 213] , thanks.
Response line: > 33 µM
